Recorded measurements of composite z-score, one per entry
Tested on: XIP peptide (Xip251-270)
test.name: small-molecule binders of XIP peptide, primary screen, biochemical, small-molecule microarray, fluorescence 635/667 nm, 0.5 µg/mL protein (AID 1183)
condition.details: small-molecule microarray binding, fluorescence 635 nm; higher = more signal
Hey, just send me the number, nothing else.

// below: answered compounds
{"compound": "COC(=O)C(CC#Cc1ccc2c(c1)[C@]1(C(=O)N2)[C@H](C(=O)O)[C@H]2C(=O)O[C@H](c3ccccc3)[C@H](c3ccccc3)N2[C@@H]1c1ccc(O)cc1)C(=O)OC", "composite z-score": 0.713}
{"compound": "COCCOC(=O)N1C(=O)[C@@]2(c3cc(C#CCNC(N)=O)ccc31)[C@H](C(=O)NC[C@H](O)c1ccccc1)[C@H]1C(=O)O[C@H](c3ccccc3)[C@H](c3ccccc3)N1[C@@H]2c1ccccc1OCCO", "composite z-score": 0.689}
{"compound": "Cc1ccc(S[C@]2(C(=O)NCCN3CCOCC3)CC(=O)N(Cc3ccccc3Cl)[C@@H]2c2ccc(CO)cc2)cc1", "composite z-score": 0.686}
{"compound": "O=C1OCCC=C[C@H]2OC34C=CCN(CCN5CCOCC5)C(=O)[C@H]3N(CCCCCCO)C(=O)[C@@H]4C12 (stereo not given in full)", "composite z-score": 0.091}

Shift focus to the following entry.
May I ask what composite z-score has been recorded for COCC(=C=CC[C@@H](O)c1ccccc1OCCO)C[C@@H](O)c1cc(Cl)cc(Cl)c1O ?
0.682

* * *

test.name: small-molecule microarray binders of probe aEGFR, primary screen, biochemical, biotinylated probe, 635/667 nm fluorescence (AID 1097);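 further: probe is a biotinylated anti-EGFR antibody binding compounds printed on slides; score combines fluorescence near 667 nm and signal to noise of each spot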
condition.details: higher = more signal
recorded.metric: composite z-score
Hey, just send me the number, nothing else.

{"compound": "COC(=O)[C@@]1(Cc2ccccc2)[C@H]2c3cc(C(=O)N4CCCC4)n(CC4CC4)c3C[C@H]2CN1C(=O)c1ccccc1", "composite z-score": 0.776}

Shift focus to the following entry.
May I ask what composite z-score has been recorded for [N-]=[N+]=NCc1ccccc1C[C@@]1(C(=O)NCC(O)CO)N=C(c2ccc(OCCCO)cc2)O[C@@H]1c1ccccc1N=[N+]=[N-] (stereo partly drawn) ?
0.118

* * *

Tested on: Human papillomavirus type 1a protein E7 (residues 44-93)
test.name: HPV1a E7 fragment binders on microarrays, primary screen, biochemical, small-molecule microarray, residues 44-93, 635 nm fluorescence (AID 1108);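 further: E7 fragment applied at 1 µg/mL in TBST for 1 h at 4 C; score combines spot fluorescence with its signal to noise ratio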
condition.details: small-molecule microarray binding, fluorescence 635 nm; higher = more signal
Recorded measurements of composite z-score, one per entry

// below: answered compounds
{"compound": "CCCCc1cn(C[C@H](Cc2ccccc2)NC(=O)N[C@H](CO)CCc2oc(C(C)=O)c(C(=O)OC)c2C(=O)OC)nn1", "composite z-score": 1.39}
{"compound": "CN1C(=O)C2C=CC(C(O)c3cccs3)N(Nc3ccccc3)C2C1=O (stereo unspecified)", "composite z-score": 0.548}
{"compound": "CN1C(=O)C2C=CC(C(O)C3CC=CCC3)N(NC(=O)OC(C)(C)C)C2C1=O (stereo unspecified)", "composite z-score": 0.696}
{"compound": "COCCCNC(=O)C1N=C(c2ccc(OCCCO)cc2)N(c2ccccc2)O1 (stereo unspecified)", "composite z-score": 1.41}
{"compound": "COC(=O)c1c(CC[C@@H](CO)NC(=O)N[C@@H](C)Cn2cc(C3(O)CCCCC3)nn2)oc(C(C)=O)c1C(=O)OC", "composite z-score": 0.921}
{"compound": "COc1ccc([C@H]2C[C@H]3C(Br)=C[C@@H]2C(=O)[C@]32CO2)cc1", "composite z-score": -0.693}

May I ask what composite z-score has been recorded for C=CCNC(=O)[C@@H]1[C@H]2C(=O)O[C@H](c3ccccc3)[C@H](c3ccccc3)N2[C@H](c2ccc(OCCO)cc2)[C@@]12C(=O)Nc1ccc(C#Cc3ccc(OC)cc3)cc12 ?
0.14

Next compound: O=C(NCc1ccccc1)[C@@H]1c2ccccc2C(=O)N(CC23CC4CC(CC(C4)C2)C3)[C@H]1c1ccc(CO)cc1
1.36

Next compound: COc1ccc(C(O)C2C=CC3C(=O)N(c4ccccc4)C(=O)C3N2Nc2ccc(C(C)C)cc2)cc1OCc1ccccc1 (stereo unspecified)
0.473

Next compound: C=C(CCCC)C(=O)CC[C@@H](OC(=O)c1cccnc1)c1ccc(CO)o1
0.94

Next compound: Cc1ccc(S[C@]2(C(=O)NC(C)C)CC(=O)N(Cc3ccccc3Cl)[C@@H]2c2ccc(CO)cc2I)cc1
0.472

Next compound: CC(C)(C)OC(=O)CC[C@]1(C(=O)NCC(O)CO)COC(c2ccc(OCCCO)cc2)=N1 (stereo partly specified)
1.31

Next compound: COC(=O)[C@@]1(Cc2ccc(OC)cc2)[C@H]2c3cc(C(=O)N(C)C)n(Cc4cccc5ccccc45)c3C[C@H]2CN1C(=O)c1ccccc1
1.48

Next compound: COCCOC(=O)N1C(=O)[C@@]2(c3cc(C#Cc4ccc(OC)cc4)ccc31)[C@H](c1ccc(O)cc1)N1[C@H](c3ccccc3)[C@H](c3ccccc3)OC(=O)[C@H]1[C@@H]2C(=O)NC[C@H](O)c1ccccc1
1.44

Next compound: O=C1c2ccccc2[C@](Cc2ccccc2I)(C(=O)NC2CC2)[C@H](c2ccc(CO)cc2)N1Cc1ccccc1
0.742

Next compound: CCOC(=O)C[C@H]1[C@H](OC(=O)Cc2ccc3c(c2)OCO3)[C@@H](NC(=O)c2ccc(-c3ccccc3)cc2)c2cc(OCCCO)ccc2N1C(=O)c1ccc2ccccc2n1
0.226

* * *

tested.on: Carbonic anhydrase 2 (Homo sapiens) (UniProt P00918)
test.name: CAII small-molecule binders, profiling panel, biochemical, small-molecule microarray, Alexa647-labelled CAII (AID 1122)
condition.details: CAII-A647 binding fluorescence, higher = more signal
Please use the following composite z-score ranges when assigning a class: low end: < 0.4; middle: ≥ 0.4 and < 0.7; high end: ≥ 0.7

Illustrative cases are given below, each with its answer.
{"compound": "C#CCNC(=O)[C@H](Cc1ccccc1)NC(=O)CCC(=O)O", "assigned.label": "low end"}
{"compound": "COC(=O)[C@@]1(Cc2ccc(F)cc2)[C@H]2c3cc(C(=O)N4CCCC4)n(Cc4ccc(C)o4)c3C[C@H]2CN1C(=O)c1ccccc1", "assigned.label": "middle"}
{"compound": "CC(C)C[C@@H]1NC(=O)[C@H]2C[C@@H](C(=O)NCCCCCCN)[C@@H](c3ccc(O)cc3)N2C1=O", "assigned.label": "high end"}

State the class of the compound shown: CC(C)C[C@@H]1NC(=O)[C@H]2C[C@@H](C(=O)NCCCCCCN(C)C)[C@@H](c3ccc(O)cc3)N2C1=O
middle

Next compound: COC(=O)[C@@]1(Cc2ccc(F)cc2)[C@H]2c3cc(C(=O)N(C)C)n(Cc4ccc(S(C)(=O)=O)cc4)c3C[C@H]2CN1C(=O)c1ccccc1
high end

Next compound: O=C1O[C@H](c2ccccc2)[C@H](c2ccccc2)N2[C@H]1[C@@H](C(=O)NC[C@H](O)c1ccccc1)[C@]1(C(=O)Nc3ccccc31)[C@H]2c1ccc(OCCO)cc1
middle

Next compound: O=C1OCC=C[C@H]2OC34C=CCN(c5ccc6ccccc6c5)C(=O)[C@H]3N(CCCCCCO)C(=O)[C@@H]4[C@@H]12 (some centres undefined)
high end

* * *

Recorded measurements of composite z-score, one per entry
test.name: binders of probe aFST on microarray, primary screen, stem cell growth factor project, biochemical, small-molecule microarray, fluorescence 635/667 (AID 1086);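 further: score merges 667 nm fluorescence with signal-to-noise of each printed compound spot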
condition.details: higher = more signal
Hey, just send me the number, nothing else.

{"molecule": "CC(C)N1C(=O)c2ccccc2[C@](C)(C(=O)NCc2ccccc2)[C@@H]1c1ccc(CO)cc1", "composite z-score": -0.27}
{"molecule": "O=C1[C@H]2C=C(Br)[C@H](C[C@@H]2c2ccccc2)[C@@]12CO2", "composite z-score": 0.0322}
{"molecule": "CCOC(=O)C=Cc1cc([N+](=O)[O-])ccc1O", "composite z-score": -0.31}
{"molecule": "COCC(=C=CC[C@@H](O)c1ccccc1OCCO)C[C@@H](O)c1cc(Cl)cc(Cl)c1O", "composite z-score": 0.624}
{"molecule": "COc1cc2c(cc1OC)CN(C(=O)[C@@H]1[C@H]3C(=O)O[C@H](c4ccccc4)[C@H](c4ccccc4)N3[C@H](c3ccc(O)cc3)[C@@]13C(=O)Nc1ccc(C#CC4(O)CCCCCC4)cc13)CC2", "composite z-score": 0.0629}
{"molecule": "Cc1ccc(C(C)CC(O)C2C=CC3C(=O)N(C)C(=O)C3N2NC(=O)OC(C)(C)C)o1 (stereo not given)", "composite z-score": 0.889}

May I ask what composite z-score has been recorded for CC(=O)N1Cc2ccccc2C[C@@]2(COC(c3ccc(OCCCO)cc3)=N2)C1=O ?
1.83

Next molecule: CN(C)C(=O)[C@]1(Cc2ccccc2CN=[N+]=[N-])N=C(c2ccc(OCCCO)cc2)O[C@@H]1c1ccccc1CN=[N+]=[N-]
1.64

Next molecule: O=C1c2ccccc2[C@](Cc2ccccc2I)(C(=O)NC2CC2)[C@H](c2ccc(CO)cc2)N1C1CCCCC1
1.37

Next molecule: COc1cc(CO)cc(I)c1O[C@H]1C=C(C(=O)NCCO)C[C@@H](N(CCN2CCOCC2)C(=O)C2CCOC2)[C@@H]1O (stereo not given in full)
0.0409

Next molecule: [N-]=[N+]=NCc1ccccc1C[C@]1(C(=O)N2CCOCC2)N=C(c2ccc(OCCCO)cc2)O[C@H]1c1ccccc1N=[N+]=[N-]
2.05

Next molecule: COc1ccc([C@H]2C[C@H]3C(Br)=C[C@@H]2C(=O)[C@]32CO2)cc1
0.0125

Next molecule: [N-]=[N+]=NCc1ccccc1C[C@]1(C(=O)O)N=C(c2ccc(OCCCO)cc2)O[C@H]1c1ccccc1N=[N+]=[N-]
0.921

Next molecule: CCCCN1CC=CC23O[C@@H]4C=CCOC(=O)[C@@H]4[C@H]2C(=O)N(CCCCCO)[C@@H]3C1=O (stereo not given in full)
-0.603

Next molecule: COc1ccc(NN2C(C(O)c3ccc([N+](=O)[O-])cc3)C=CC3C(=O)N(C4CCCCC4)C(=O)C32)cc1 (stereo not given)
0.844

Next molecule: C=C(COC)/C(=C/C[C@@H](OC(C)=O)c1ccc(OCCO)cc1)c1cc(C(=O)OC)ccc1OC
0.627

Next molecule: C=CCN1C(=O)[C@]2(O[C@H](CCO)[C@@H]([Si](C)(C)c3ccc(OC)cc3)[C@@H]2C)c2cc(N3CCCCC3=O)ccc21
0.645

Next molecule: CC(C)C[C@H]1NC(=O)[C@@]23C(=O)N[C@@H](Cc4ccccc4)C2[C@H](C)[C@@]2(C)O[C@H]2C3/C=C/C/C=C\CNC(=O)[C@H](Cc2ccccc2)NC1=O (stereo not given in full)
0.146

Next molecule: NCCCCCNC(=O)[C@@H]1C[C@@H]2C(=O)N[C@@H](Cc3ccccc3)C(=O)N2[C@@H]1c1cccc(OCCO)c1
-0.122

Next molecule: COc1ccc(C#Cc2ccc3c(c2)[C@]2(C(=O)N3)[C@H](c3ccccc3OCCO)N3[C@H](c4ccccc4)[C@H](c4ccccc4)OC(=O)[C@H]3[C@@H]2C(=O)O)cc1
0.336

Next molecule: COC(=O)C=C(CC(O)c1cccc(Cl)c1)OC (stereo not given)
1.65

Next molecule: O=C1OCC=C[C@H]2OC34C=CCN(CCN5CCOCC5)C(=O)[C@H]3N(CCCO)C(=O)[C@@H]4[C@@H]12 (stereo not given in full)
-0.382

Next molecule: [N-]=[N+]=Nc1ccccc1[C@H]1OC(c2ccc(OCCCO)cc2)=N[C@@]1(Cc1ccccc1)C(=O)O
0.693

Next molecule: COCCOC(=O)N1C(=O)[C@@]2(c3cc(C#CC4=CCCCC4)ccc31)[C@H](C(N)=O)[C@H]1C(=O)O[C@H](c3ccccc3)[C@H](c3ccccc3)N1[C@@H]2c1ccc(OCCO)cc1
-0.335

Next molecule: CS(=O)(=O)CCOC(=O)C1=CC(CCCO)=CC(c2ccc(CN3CCCC3)cc2)N(Cc2cc3c(cc2Br)OCO3)C=C1C(=O)OCCS(C)(=O)=O (stereo not given)
0.624
